# Method Description: Cytotoxicity against human HeLa cells assessed as reduction in cell viability incubated for 24 hrs by CellTiter-Blue assay
# Type: cell-based
Measured Property: CC50 at 24 h

See these solved cases before continuing.
# Input Smiles, Reported Result
data = [
    ("CCCCCCN[C@H](C(=O)NCc1ccc(C(N)=O)cc1)c1ccc(OCc2ccccc2)cc1", "> 50 µM"),
    ("NC(=O)c1cccc(NC(=O)[C@@H](NC(=O)c2ccc(-c3ccco3)cc2)c2ccc(OCc3ccccc3)cc2)c1", "> 50 µM"),
    ("CCCCCC(=O)N[C@H](C(=O)Nc1cccc(C(N)=O)c1)c1ccc(OCc2c(Cl)cccc2Cl)cc1", "> 50 µM"),
    ("CCCCCCCS(=O)(=O)N[C@H](C(=O)NCc1ccc(C(N)=O)cc1)c1ccc(OCc2ccccc2)cc1", "> 25 µM"),
    ("CCCCCC(=O)N[C@H](C(=O)Nc1ccc(S(N)(=O)=O)cc1)c1ccc(OCc2ccccc2)cc1", "> 50 µM"),
]

Fill in CC50 at 24 h for each of the 8 compounds listed.
1. NC(=O)c1ccc(CNC(=O)[C@@H](NCc2ccccc2)c2ccc(OCc3ccccc3)cc2)cc1
2. NC(=O)c1ccc(CNC(=O)[C@@H](NC(=O)/C=C/c2ccccc2)c2ccc(OCc3ccccc3)cc2)cc1
3. CCCCCC(=O)N[C@H](C(=O)NCc1ccc(OC)cc1)c1ccc(OCc2ccccc2)cc1
4. CCCCCC(=O)N[C@@H](C(=O)NCc1ccc(C(N)=O)cc1)c1ccc(OCc2ccc(C(F)(F)F)cc2)cc1
5. CCCCCC(=O)N[C@H](C(=O)NCc1ccc(C(N)=O)cc1)c1ccc(O)cc1
6. NC(=O)c1cccc(NC(=O)[C@@H](NC(=O)c2ccc(Oc3ccc4c(c3)OCO4)cc2)c2ccc(OCc3ccccc3)cc2)c1
7. NC(=O)c1ccc(CNC(=O)[C@@H](NC(=O)C2CCC2)c2ccc(OCc3ccccc3)cc2)cc1
8. CCCCCC(=O)N[C@H](C(=O)NCc1ccc(Cl)cc1)c1ccc(OCc2ccccc2)cc1

**A:**
1. > 50 µM
2. > 50 µM
3. > 50 µM
4. > 50 µM
5. > 100 µM
6. > 100 µM
7. > 50 µM
8. > 50 µM

The following compounds each have a reported value; give each one's CC50 at 24 h.
1. NC(=O)c1cccc(NC(=O)[C@@H](NC(=O)c2ccc(-c3cncnc3)cc2)c2ccc(OCc3ccccc3)cc2)c1
2. CCCCCC(=O)N[C@H](C(=O)NCc1ccc(C(=O)NO)cc1)c1ccc(OCc2ccccc2)cc1

**A:**
1. > 50 µM
2. > 50 µM

----------
# Test Target: Genome polyprotein (dengue virus type 2)
# Method Description: Inhibition of NS2B-NS3 protease in DENV2proHeLa system assessed as inhibition of luciferase signal at 12.5 uM incubated for 24 hrs by luciferase reporter gene assay
# Format: cell-based
# Reported Conditions: HeLa
Classify as follows. Reported inhibition greater than or equal to 50%: criterion met. Reported inhibition below: criterion not met.

# Molecule, Test Target, Group
measured = [
    ("CCCCCC(=O)N[C@H](C(=O)NCc1cccc(OC)c1)c1ccc(OCc2ccccc2)cc1", "Genome polyprotein (dengue virus type 2)", "criterion not met"),
]

**Q:** Could you tell me if the measured inhibition of CCCCCC(=O)N[C@H](C(=O)NCc1ccc(C(N)=O)cc1)c1ccc(OCc2ccc(C(F)(F)F)cc2)cc1 reaches 50% or more?
**A:** criterion met

**Q:** Answer whether inhibition of CCCCCC(=O)N[C@H](C(=O)NCc1ccc(C(N)=O)cc1)c1ccc(O)cc1 is greater than or equal to 50%.
**A:** criterion not met

**Q:** Exam item: decide whether the reported inhibition for NC(=O)c1cccc(NC(=O)[C@@H](NC(=O)c2ccc(Oc3ccccc3)cc2)c2ccc(OCc3c(Cl)cccc3Cl)cc2)c1 is at least 50%.
**A:** criterion met

**Q:** Test whether the molecule NC(=O)c1cccc(NC(=O)[C@@H](NC(=O)c2ccc3c(c2)OCCO3)c2ccc(OCc3ccccc3)cc2)c1 records inhibition of 50% or higher.
**A:** criterion met

**Q:** Check this molecule for inhibition at or above 50%: Cc1ccc(C)c(OCCCC(C)(C)C(=O)N[C@H](C(=O)Nc2cccc(C(N)=O)c2)c2ccc(OCc3ccccc3)cc2)c1
**A:** criterion met

**Q:** Evaluate CCCCCCN[C@H](C(=O)NCc1ccc(C(N)=O)cc1)c1ccc(OCc2ccccc2)cc1 : inhibition at minimum 50%?
**A:** criterion not met

**Q:** Confirm if inhibition reported for the molecule CCCCCC(=O)N[C@H](C(=O)NCc1ccc(C(N)=O)cc1)c1ccc(OCc2c(Cl)cccc2Cl)cc1 is 50% or above.
**A:** criterion met

**Q:** Is reported inhibition greater than or equal to 50% here: CCCCCC(=O)N[C@H](C(=O)N1CCC(C(=O)Nc2ccccc2)CC1)c1ccc(OCc2ccccc2)cc1
**A:** criterion not met

**Q:** Would you say NC(=O)c1cccc(NC(=O)[C@@H](NC(=O)c2ccc(Oc3ccc4c(c3)OCCO4)cc2)c2ccc(OCc3ccccc3)cc2)c1 shows inhibition at minimum 50%?
**A:** criterion met

**Q:** Hello, I need to know if NC(=O)c1cccc(NC(=O)[C@@H](NC(=O)c2ccc(Oc3ccc(Cl)cc3)cc2)c2ccc(OCc3ccccc3)cc2)c1 has measured inhibition not below 50%. Thanks!
**A:** criterion met

**Q:** Reported inhibition reaches at least 50% for NC(=O)c1ccc(CNC(=O)[C@@H](NC(=O)c2ccc(Oc3ccccc3)cc2)c2ccc(OCc3ccccc3)cc2)cc1 ?
**A:** criterion met

**Q:** Answer whether inhibition of CCCC(O)C(=O)N[C@H](C(=O)NCc1ccc(C(N)=O)cc1)c1ccc(OCc2ccccc2)cc1 (some centres not stated) is greater than or equal to 50%.
**A:** criterion not met

**Q:** Hello, I need to know if NC(=O)c1ccc(CNC(=O)[C@@H](NC(=O)Cc2ccc(-c3ccccc3)cc2)c2ccc(OCc3ccccc3)cc2)cc1 has measured inhibition not below 50%. Thanks!
**A:** criterion not met

**Q:** Hi team, for NC(=O)c1cccc(NC(=O)[C@@H](NC(=O)c2ccc(Oc3cccc4c3C(=O)CC4)cc2)c2ccc(OCc3ccccc3)cc2)c1 , is the recorded inhibition at or above 50%?
**A:** criterion met

**Q:** Would you say NC(=O)c1ccc(CNC(=O)[C@@H](NCc2ccccc2)c2ccc(OCc3ccccc3)cc2)cc1 shows inhibition at minimum 50%?
**A:** criterion not met
